System name: T1, cynomolgus monkey Protein S (cynomolgus monkey)
T1 construct: also called cyno Protein S
Experiment: BLI Octet; antibody on anti-human Fc probe; Protein S 7.81-500 nM; 4 mM CaCl2
Could you please report measured kon for the items listed next?
Hi! Could you send only the number? It should be in M⁻¹ s⁻¹, unit omitted.

// recorded kon for Antibody 1 (antibody, V domains shown, Same variable regions as Antibody 13) VH: QVQLVQSGAEVKKPGSSVKVSCKVSGGTFSSYSISWVRQAPGQGLEWMGGIIPIFGTTNYAQKFQGRVTITADESTSTAYMDLSSLKSEDTAMYYCEGGRVGADFDYWGQGTLVTVSS VL: SSDLTQGPAVSVALGQTVRITCQGDSLRNYYASWYQQKPGQAPVPVIYGKNDRPSGIPDRFSGSISGNTASLTITGAQAEDEAHYYCNSRDSSGNHVVFGGGTKLTVL : 139000

// recorded kon for Antibody 3 (antibody, V domains shown, Same variable regions as Antibody 15) VH: EVQLVESGGGLVQPGRSLRLSCAASGFTFDDYAMHWVRQAPGKGLEWVSGITWNSGNIGYADSVKGRFTISRDNAKNSLYLHMNSLRIEDTAFYYCAKGRAVSDTFDIWGQGTMVTVSS VL: SYELNQPPSVSVSPGQTASITCSGDKLGDKYASWYQQKPGQSPVVAIYQNSKRPSGIPERFSASNSGNTATLTISGTQALDEADYYCQAWDSSTWVFGGGTKLTVL : 127000

Numbers sourced from patent US20230083243A1.
